target: HLA-DRB1*01:01 (Homo sapiens, UniProt P01903+P01911, A100R/D57E/F55L/F60I/F76Y/I96L/L162R/M171V/P40L/Q125E/R42F/V115G/Y59C); details: competitive ELISA; ratio IC50 of peptide / IC50 of reference peptide HA 306–318; lower = higher affinity; ratio 20 or less high, 20–100 moderate; three independent experiments
Attribute: Relative binding affinity of peptide to HLA-DR molecules DRB1*0101
measurement type: Relative binding affinity of peptide to HLA-DR molecules DRB1*0101

substance="13: SseB overlapping library peptide, residues 121–140 (DYMAKYGDHGKLDKGGLQAI) [Peptide 13]" measured_result=2958
substance="11: SseB overlapping library peptide, residues 101–120 (EDVIKYMRDNGILIDGMTID) [Peptide 11]" measured_result=61
substance="14: SseB overlapping library peptide, residues 131–150 (KLDKGGLQAIKAALDNDANR) [Peptide 14]" measured_result=335
substance="4: SseB overlapping library peptide, residues 31–50 (DDLSQQNPFAEGYGVLLILL) [Peptide 4]" measured_result=22
